- Read-out: Matrix Metallopeptidase 1 (MMP1), MMP1 (gene 4312)
- Assay Remarks: BSK_BE3C_MMP1: BioMAP Diversity Plus: BE3C Assay for Matrix Metallopeptidase 1 (MMP1) Biomarker Activity (AID 2283024)
- Condition Notes: primary human bronchial epithelial cells; actives raise or lower the signal
Calls of active or inactive are those of the source. The calls were made as follows: active = hit-call score of the fitted dose curve at least 0.9, where 1 is the maximum; inactive = score below 0.9.
Readout: AC50

Record excerpt, results attached:
Task: Given `Oc1cccc2ccccc12` , state its recorded AC50.
Output: inactive

Task: Please give the result for CC[N+](CC)(CC(=O)Nc1c(C)cccc1C)Cc1ccccc1 (tested in a mixture with another compound) too.
Output: inactive

Task: Would you kindly repeat that for `Cc1cccnc1` ?
Output: inactive

Task: Another compound to look at: `CCCCCCCCCCCCCCCCCC[N+](C)(C)C`
Output: 6.82 µM (active)

Task: Also need `Cc1cc(-n2nc3ccc(Cl)cc3n2)c(O)c(C(C)(C)C)c1` , thanks.
Output: inactive

Task: Another compound: `COc1ccc(C(=O)c2ccccc2O)c(O)c1`
Output: inactive

Next:
Task: Name the reported AC50 value associated with the compound `Cc1c(C(N)=O)cc([N+](=O)[O-])cc1[N+](=O)[O-]`
Output: inactive

Task: What do you get for `CCC[Si](OC(C)=O)(OC(C)=O)OC(C)=O` ?
Output: inactive

Task: Moving on to CC(C)CC(=O)CC(C)CC(C)C (stereo not drawn)
Output: 20 µM (active)

Task: Same read-out for CCCCC(CC)COC(=O)C=Cc1ccc(OC)cc1 (stereo not drawn) ?
Output: inactive

Task: Now the same for CC(C)C1OCCN1CCOC(=O)NCCCCCCNC(=O)OCCN1CCOC1C(C)C (stereo not drawn)
Output: inactive

Task: Proceed to `Sc1nc2ccccc2s1`
Output: inactive

Task: # repeat for `CN(C)c1ccc(C(c2ccccc2)c2ccc(N(C)C)cc2)cc1`
Output: 5.54 µM (active)

====

- Read-out: TIMP metallopeptidase inhibitor 1 (TIMP1), TIMP1 (gene 7076)
- Assay Remarks: BSK_MyoF_TIMP1: BioMAP Diversity Plus: MyoF Assay for TIMP metallopeptidase inhibitor 1 (TIMP1) Biomarker Activity (AID 2284269)
- Condition Notes: primary human lung fibroblasts
Active and inactive are the calls of the source. Rule for the calls: active = hit-call score of the fitted dose curve at least 0.9, where 1 is the maximum; inactive = score below 0.9.
Allowed answers: active, inactive

Task: Which outcome was entered for the molecule CC(C)CC(=O)CC(C)CC(C)C (centres undefined) in this test?
Output: inactive

Task: Continue with `COC(=O)/C=C\C(=O)OC`
Output: inactive

Task: What about `CC[N+](CC)(CC(=O)Nc1c(C)cccc1C)Cc1ccccc1` ?
Output: inactive

Next:
Task: Name the outcome recorded for `CN(C)c1ccc(C(c2ccccc2)c2ccc(N(C)C)cc2)cc1` in the assay.
Output: inactive

Task: Then this molecule: CCCCCCCCCCC1CO1 (centres undefined)
Output: active

Task: Request: `Sc1nc2ccccc2s1`
Output: inactive

Task: Repeat for the following molecule: `O=C(C(=O)c1ccccc1)c1ccccc1`
Output: inactive

Task: Can you handle `Cc1cc(-n2nc3ccc(Cl)cc3n2)c(O)c(C(C)(C)C)c1` next?
Output: inactive

Task: Next record, please: CN(C)CCC(c1ccc(Cl)cc1)c1ccccn1 (centres undefined)
Output: inactive

====

- Assay Remarks: TOX21_p53_BLA_p2_viability: Viability Assessment in the Tox21 HCT-116 p53 Agonism Beta-lactamase Assay, Phase 2 (AID 2283591);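 also: compound exposure lasted 16 h at 37 °C; actives lower the ATP signal meaning cytotoxicity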
Inconclusive results are not listed. Calls of active or inactive are those of the source. Rule for the calls: active = hit-call score of the fitted dose curve at least 0.9, where 1 is the maximum; inconclusive = response in the unintended direction; inactive = score below 0.9.
Write down one outcome, taken from 1 (yes) = active, 0 (no) = inactive

Previously resolved entries follow.
Task: I'd appreciate the recorded outcome for `O=c1[nH]c(=O)n([C@H]2C[C@H](O)[C@@H](CO)O2)cc1Br` from this test.
Output: 0 (no)

Task: Now consider `CCc1cccc(N(C)C(N)=Nc2cccc3ccccc23)c1` .
Output: 0 (no)

Task: Entry `O=S(=O)(O)CCN1CCN(CCO)CC1` please
Output: 0 (no)

***
Task: Short answer needed: outcome of this test for `CCCc1ncc(C[n+]2ccccc2C)c(N)n1` ?
Output: 0 (no)

Task: Lookup `CNC(=O)Nc1ccc(Cl)c(Cl)c1`
Output: 0 (no)

Task: Another molecule to check: `Cc1cc(C(=O)NCCc2ccc(S(=O)(=O)NC(=O)NN3CCCCCC3)cc2)no1`
Output: 0 (no)

Task: Follow-up item: `O=C1Nc2ccc(Cl)cc2[C@@](C#CC2CC2)(C(F)(F)F)O1`
Output: 1 (yes)

Task: Would you mind doing O=C(O)/C=C/C(O)c1ccc(Cl)cc1 (stereo not drawn) as well?
Output: 0 (no)

Task: Repeat for the following molecule: `CC(=O)Oc1ccc(C(=C2CCCCC2)c2ccc(OC(C)=O)cc2)cc1`
Output: 0 (no)

Task: What about COc1ccc(CNCC(O)COc2ccc3[nH]c(=O)ccc3c2)cc1OC (stereo not drawn) ?
Output: 0 (no)

Task: Same again, this time with COc1cc(C(=O)OC(COCCC(C)C)CN2CCOCC2)cc(OC)c1OC (stereo not drawn)
Output: 0 (no)

Task: Also `C=CC1=C(C(=O)O)N2C(=O)[C@@H](NC(=O)C(=NOCC(=O)O)c3csc(N)n3)[C@H]2SC1` , if possible.
Output: 0 (no)

Task: Same for `CNc1ccc(O)cc1`
Output: 0 (no)

Task: Now consider `CCOC(=O)[C@H](CCc1ccccc1)N[C@@H](C)C(=O)N1Cc2ccccc2C[C@H]1C(=O)O` .
Output: 0 (no)

====

- Assay Remarks: CCTE_Deisenroth_DEVTOX-GLR_Endo_CellCount: Viability Assessment in CCTE's DevTox GLR-Endo Assay, Deisenroth Lab (AID 2284420)
The source made the active and inactive calls. The calls were made as follows: active = hit-call score of the fitted dose curve at least 0.9, where 1 is the maximum; inactive = score below 0.9.
AC50 for assorted molecules

Solved cases below.
Task: Which AC50 reading was recorded for the molecule `COc1cc2c(Nc3ccc(Br)cc3F)ncnc2cc1OCC1CCN(C)CC1` ?
Output: 4.46 µM (active)

Task: What do you have for `COc1cc2ncnc(Nc3ccc(F)c(Cl)c3)c2cc1OCCCN1CCOCC1` ?
Output: 6.57 µM (active)

Task: Moving on to the next molecule: `O=c1[nH]c(=O)n([C@H]2C[C@H](O)[C@@H](CO)O2)cc1Br`
Output: 10.2 µM (active)

Task: What about this molecule? `CCCCCN=C(N)N/N=C/c1c[nH]c2ccc(OC)cc12`
Output: 5.15 µM (active)

Others:
Task: Quick one: AC50 for `CNC(=O)c1cc(Oc2ccc(NC(=O)Nc3ccc(Cl)c(C(F)(F)F)c3)cc2)ccn1` ?
Output: 1.08 µM (active)

Task: Repeat with `Cc1nc2sccn2c(=O)c1CCN1CCC(=C(c2ccc(F)cc2)c2ccc(F)cc2)CC1`
Output: 9.15 µM (active)

Task: Here is the next molecule: `CCN(CC)CCNC(=O)c1c(C)[nH]c(/C=C2\C(=O)Nc3ccc(F)cc32)c1C`
Output: 1.62 µM (active)

Task: Same lookup for `O=C1Cc2cc(CCN3CCN(c4nsc5ccccc45)CC3)c(Cl)cc2N1` , please.
Output: 3.31 µM (active)

Task: Then what about the molecule `Cc1ccc(NC(=O)c2ccc(CN3CCN(C)CC3)cc2)cc1Nc1nccc(-c2cccnc2)n1` ?
Output: 15.8 µM (active)

Task: Can you handle CN1CCN2c3ccccc3Cc3ccccc3C2C1 (stereo not given) next?
Output: 36.4 µM (active)

====

- Test System: Cellular tumor antigen p53 (Homo sapiens) (UniProt P04637)
- Sequence (P04637 whole entry, looked up): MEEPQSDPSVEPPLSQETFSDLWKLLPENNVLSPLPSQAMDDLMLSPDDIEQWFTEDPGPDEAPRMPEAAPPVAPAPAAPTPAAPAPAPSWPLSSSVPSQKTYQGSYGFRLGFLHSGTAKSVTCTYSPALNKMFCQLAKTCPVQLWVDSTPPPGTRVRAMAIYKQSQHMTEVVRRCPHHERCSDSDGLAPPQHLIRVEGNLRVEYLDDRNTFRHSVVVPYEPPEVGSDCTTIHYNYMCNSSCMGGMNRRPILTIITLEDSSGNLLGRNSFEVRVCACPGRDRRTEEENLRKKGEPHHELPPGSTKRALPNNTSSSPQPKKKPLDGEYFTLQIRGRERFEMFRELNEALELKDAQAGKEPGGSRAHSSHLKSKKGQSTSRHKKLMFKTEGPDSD
- Assay Remarks: TOX21_p53_BLA_p4_ratio: Tox21 HCT-116 p53 Agonism Beta-lactamase Assay, Ratio, Phase 4 (AID 2283601)
Inconclusive results are not listed. Calls of active or inactive are those of the source. Rule for the calls: active = hit-call score of the fitted dose curve at least 0.9, where 1 is the maximum; inconclusive = response in the unintended direction; inactive = score below 0.9.
A correct response names exactly one class from yes (1) (active), no (0) (inactive)

Task: Could you kindly confirm the outcome this assay logged for `CC1(C)CC(N)CC(C)(C)N1` ?
Output: no (0)

Task: Now consider `CCC(=O)OCC(=O)[C@@]1(OC(=O)CC)[C@@H](C)C[C@H]2[C@@H]3CCC4=CC(=O)C=C[C@]4(C)[C@@]3(F)[C@@H](O)C[C@@]21C` .
Output: no (0)

Task: Follow-up entry: `CC(=O)OCC(=O)[C@@]1(O)CC[C@H]2[C@@H]3CCC4=CC(=O)C=C[C@]4(C)[C@@]3(F)[C@@H](O)C[C@@]21C`
Output: no (0)

Task: Another: `Nc1ncnc(Nc2ccccc2)n1`
Output: no (0)

Task: Also need `Cc1ccc2c(ccc3ccccc32)c1` , thanks.
Output: no (0)

Task: Another compound to look at: C=C(C)C1CC=C(C)C(O)C1 (stereo unspecified)
Output: no (0)

Further cases:
Task: Outcome logged for `Cc1cccc(C)c1NC(=O)c1ccccc1C(=O)O` in this assay:
Output: no (0)

Task: Also need `CN(C)C(=O)CNC(=O)Cc1ccccc1` , thanks.
Output: no (0)

Task: Same question, `OC[C@@H](O)[C@H](O)[C@H](O)[C@@H](O)CO` this time
Output: no (0)

Task: Okay, and `CCN(CC)c1ccc(C(=C2C=CC(=[N+](CC)CC)C=C2)c2ccccc2)cc1` ?
Output: yes (1)

Task: Ok, now `CC(=O)C=Cc1ccco1`
Output: no (0)
